Entry source: ChEMBL document CHEMBL3875162

experiment: Cytotoxicity against human MCF10A cells assessed as cell growth inhibition after 48 hrs by MTT assay; assay type: toxicity, cell-based, MCF-10A
RECORDED_METRIC: IC50 at 48 h

Answered examples (2):
COc1cc2c(cc1OC)CN(C(=O)CN1C(=O)S/C(=C\c3nc4ccccc4n3C)C1=O)CC2 : > 100 µM
Cn1c(/C=C2\SC(=O)N(CC(=O)Nc3nc(-c4ccccc4)cs3)C2=O)nc2ccccc21 : > 100 µM

Report IC50 at 48 h for "COc1cc2c(cc1OC)CN(C(=O)CN1C(=O)S/C(=C\c3nc4ccccc4n3C(C)C)C1=O)CC2" please.
> 100 µM

Param item: "Cn1c(/C=C2\SC(=O)N(CC(=O)Nc3cc(C(C)(C)C)on3)C2=O)nc2ccccc21"
38.7 µM

###

experiment: Cytotoxicity against human A549 cells assessed as cell growth inhibition after 48 hrs by MTT assay; assay type: functional, cell-based; settings: A549, 48 h
Note to self: IC50 under 30 µM means Satisfied, ties and anything higher get Not satisfied.

Solved cases (6 shown):
COc1cc2c(cc1OC)CN(C(=O)CN1C(=O)S/C(=C\c3nc4ccccc4n3C)C1=O)CC2 : Satisfied
CCn1c(/C=C2\SC(=O)N(CC(=O)N3CCCC3)C2=O)nc2ccccc21 : Not satisfied
CC(C)n1c(/C=C2\SC(=O)N(CC(=O)N3CCCCC3)C2=O)nc2ccccc21 : Satisfied
CCn1c(/C=C2\SC(=O)N(CC(=O)Nc3cc(C(C)(C)C)on3)C2=O)nc2ccccc21 : Not satisfied
CC(C)n1c(/C=C2\SC(=O)N(CC(=O)N3CCCC3)C2=O)nc2ccccc21 : Not satisfied
CCn1c(/C=C2\SC(=O)N(CC(=O)N3CCOCC3)C2=O)nc2ccccc21 : Not satisfied

Please check: IC50 for "COc1cc2c(cc1OC)CN(C(=O)CN1C(=O)S/C(=C\c3nc4ccccc4n3C(C)C)C1=O)CC2" , strictly under 30 µM or not?
Satisfied

Param item: "Cn1c(/C=C2\SC(=O)N(CC(=O)N3CCOCC3)C2=O)nc2ccccc21"
Not satisfied

Param item: CC1CN(C(=O)CN2C(=O)S/C(=C\c3nc4ccccc4n3C(C)C)C2=O)CC(C)O1 (stereo unspecified)
Not satisfied

Param item: "CC(C)n1c(/C=C2\SC(=O)N(CC(=O)N3CCOCC3)C2=O)nc2ccccc21"
Not satisfied

Param item: "CCn1c(/C=C2\SC(=O)N(CC(=O)N3CCCCC3)C2=O)nc2ccccc21"
Not satisfied

###

assay: Cytotoxicity against human MDA-MB-231 cells assessed as cell growth inhibition after 48 hrs by MTT assay; assay type: functional, cell-based; conditions: MDA-MB-231, 48 h
RECORDED_METRIC: pIC50
Lab note: report pIC50 as minus log10 of the concentration in molar units, number only.

O=c1[nH]cc(F)c(=O)[nH]1 : 4.44

Report pIC50 for "COc1cc2c(cc1OC)CN(C(=O)CN1C(=O)S/C(=C\c3nc4ccccc4n3C(C)C)C1=O)CC2" please.
4.51

Param item: "Cn1c(/C=C2\SC(=O)N(CC(=O)Nc3cc(C(C)(C)C)on3)C2=O)nc2ccccc21"
4.47

Param item: "COc1cc2c(cc1OC)CN(C(=O)CN1C(=O)S/C(=C\c3nc4ccccc4n3C)C1=O)CC2"
4.44

###

test: Cytotoxicity against human MDA-MB-231 cells assessed as cell growth inhibition after 48 hrs by MTT assay; assay type: functional, cell-based; conditions: MDA-MB-231, 48 h
RECORDED_METRIC: IC50

Answered examples (2):
CC(C)n1c(/C=C2\SC(=O)N(CC(=O)N3CCOCC3)C2=O)nc2ccccc21 : > 50 µM
CCn1c(/C=C2\SC(=O)N(CC(=O)N3CCOCC3)C2=O)nc2ccccc21 : > 50 µM

Now examine the next entry.
Report IC50 for "CCn1c(/C=C2\SC(=O)N(CC(=O)N3CCc4cc(OC)c(OC)cc4C3)C2=O)nc2ccccc21" please.
> 50 µM

###

assay: Cytotoxicity against human PC3 cells assessed as cell growth inhibition after 48 hrs by MTT assay; type: functional, cell-based; settings: PC-3, 48 h
pIC50: −log10 of the molar value.
Reported pIC50 values are given for each entry in this list.

Answered examples (2):
Cn1c(/C=C2\SC(=O)N(CC(=O)N3CCCCC3)C2=O)nc2ccccc21 : < 4.30
CCn1c(/C=C2\SC(=O)N(CC(=O)N3CCc4cc(OC)c(OC)cc4C3)C2=O)nc2ccccc21 : 4.47

Report pIC50 for "O=c1[nH]cc(F)c(=O)[nH]1" please.
4.34

Param item: "CCn1c(/C=C2\SC(=O)N(CC(=O)N3CCOCC3)C2=O)nc2ccccc21"
< 4.30

Param item: "CC(C)n1c(/C=C2\SC(=O)N(CC(=O)N3CCCCC3)C2=O)nc2ccccc21"
< 4.30

Param item: "COc1cc2c(cc1OC)CN(C(=O)CN1C(=O)S/C(=C\c3nc4ccccc4n3C(C)C)C1=O)CC2"
< 4.30

Param item: "CCn1c(/C=C2\SC(=O)N(CC(=O)N3CCCC3)C2=O)nc2ccccc21"
< 4.30

###

test: Cytotoxicity against human A549 cells assessed as cell growth inhibition after 48 hrs by MTT assay; assay type: functional, cell-based; settings: A549, 48 h
RECORDED_METRIC: pIC50
Lab note: report pIC50 as minus log10 of the concentration in molar units, number only.

CC1CN(C(=O)CN2C(=O)S/C(=C\c3nc4ccccc4n3C)C2=O)CC(C)O1 (stereo not given) : 4.53
CCn1c(/C=C2\SC(=O)N(CC(=O)N3CCc4cc(OC)c(OC)cc4C3)C2=O)nc2ccccc21 : 4.58
O=c1[nH]cc(F)c(=O)[nH]1 : 4.52
Cn1c(/C=C2\SC(=O)N(CC(=O)Nc3nc(-c4ccccc4)cs3)C2=O)nc2ccccc21 : 4.94

Now examine the next entry.
Report pIC50 for "Cn1c(/C=C2\SC(=O)N(CC(=O)Nc3cc(C(C)(C)C)on3)C2=O)nc2ccccc21" please.
4.82
